Reference source for all entries: the supplement of paper PMC12042874

- assay.summary: amyloid nucleation score (Sup35N fusion, yeast selection) (log enrichment); library NNK2; higher = more nucleation; inactive = no reads after selection;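 also: zero at mode of non-aggregating sequences after 7 days selection at 30°C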
reported.metric: amyloid nucleation score
Answer field: number only, no words.

Examples with answers:
VEFNNAFNNCSLLFSDPRSS 3.34
NLMVHVFAAVMGINDLKC 1.41
MENGHCYFCQCTKSH 2.85
NLTNRYFNFSRTEPCNKYLT 0.895

[in] Quickly give me recorded amyloid nucleation score for CFANRNRFFMSLSEHHTFDG
[out] -0.798

[in] Supply reported amyloid nucleation score belonging to this sequence: CYVDFSYLVNKFYWGPRWMP
[out] -0.049

[in] Using known records, supply amyloid nucleation score for LLTGVISGYQIRWGTTSLNG
[out] 2.49

[in] Answer with the recorded amyloid nucleation score of FDDEMVRCIFNYRLSGYRPL only.
[out] 1.47

[in] Give the reported value of amyloid nucleation score for this record: LRSHLEYGRLCVCTQELMRR
[out] 4.88
